System: acyl coenzyme A: cholesterol acyltransferase (ACAT)
test: Test for ACAT inhibitory activity (microsome fraction prepared from rabbit liver)
Format: biochemical
setup.conditions: 10^-6 M, 37° C., 10 minutes
parameter: Inhibiting rate(%) of ACAT
Entry format: amount then unit.

// known answers, use as guide
CC(C)c1cccc(C(C)C)c1NC(=O)C1c2ccccc2CSc2ccc(Br)cc21 (centres unmarked); 88%
CC(C)c1cccc(C(C)C)c1NC(=O)C1c2ccccc2COc2ccc(Br)cc21 (single isomer, unassigned) [Compound 60]; 99%
CC(C)c1cccc(C(C)C)c1NC(=O)C1c2ccccc2COc2cc(Br)ccc21 (centres unmarked); 86%
CC(C)c1cccc(C(C)C)c1NC(=O)C1c2ccccc2COc2ccc(F)cc21 (centres unmarked); 81%
CSc1cc(C(C)C)c(NC(=O)C2c3ccccc3COc3ccc(C)cc32)c(C(C)C)c1 (centres unmarked); 78%
Cc1cc2c(c(C)c1Br)C(C(=O)Nc1c(C(C)C)cccc1C(C)C)c1ccccc1CO2 (centres unmarked); 99%
CC(C)c1cccc(C(C)C)c1NC(=O)C1c2cc(Br)ccc2OCc2ncccc21 (centres unmarked); 91%

Now for the compound whose Inhibiting rate(%) of ACAT we want.
Recorded result, CCc1cccc(CC)c1NC(=O)C1c2ccccc2COc2ccc(C)cc21 (centres unmarked) , Inhibiting rate(%) of ACAT: 77%

* * *

System: acyl coenzyme A: cholesterol acyltransferase (ACAT)
test: Test for ACAT inhibitory activity (microsome fraction prepared from rabbit liver)
Format: biochemical
setup.conditions: 10^-6 M, 37° C., 10 minutes
parameter: Inhibiting rate(%) of ACAT
Answer format: numeric, % implied, no suffix.

Recorded result, CCc1cccc(CC)c1NC(=O)C1c2ccccc2COc2cc(C)c(Br)c(C)c21 (centres unmarked) , Inhibiting rate(%) of ACAT: 98

Recorded result, O=C(Nc1c(Cl)cccc1Cl)C1c2ccccc2COc2cc(Br)ccc21 (centres unmarked) , Inhibiting rate(%) of ACAT: 52

Recorded result, CC(C)c1cccc(C(C)C)c1NC(=O)C1c2ccccc2CCc2cc(Br)ccc21 (centres unmarked) , Inhibiting rate(%) of ACAT: 98

Recorded result, CC(C)c1cccc(C(C)C)c1NC(=O)C1c2ccccc2COc2ccc(Br)cc21 (single isomer, unassigned) [Compound 61] , Inhibiting rate(%) of ACAT: 92

Recorded result, Cc1cc(C)c2c(c1)OCc1ccccc1C2C(=O)Nc1c(C(C)C)cccc1C(C)C (centres unmarked) , Inhibiting rate(%) of ACAT: 100

* * *

Quick list: Inhibiting rate(%) of ACAT per entry.
Test system: acyl coenzyme A: cholesterol acyltransferase (ACAT)
test: Test for ACAT inhibitory activity (microsome fraction prepared from rabbit liver)
Format: biochemical
setup.conditions: 10^-6 M, 37° C., 10 minutes
Answer format: numeric, % implied, no suffix.

// known answers, use as guide
CC(C)c1cccc(C(C)C)c1NC(=O)C1c2ccccc2COc2ccc(Br)cc21 (centres unmarked) [Compound 18]; 100
CC(C)c1cccc(C(C)C)c1NC(=O)C1c2ccccc2COc2ccc(C#N)cc21 (centres unmarked); 69
COC(=O)c1cc(C)cc2c1OCc1ccccc1C2C(=O)Nc1c(C(C)C)cccc1C(C)C (centres unmarked); 99
Cc1ccc2c(c1)C(C(=O)Nc1c(C(C)C)cccc1C(C)C)c1ccccc1CO2 (centres unmarked); 98
CC(C)c1cccc(C(C)C)c1NC(=O)C1c2ccccc2COc2ccc(C(F)(F)F)cc21 (centres unmarked); 84

Recorded result, CC(C)c1cccc(C(C)C)c1NC(=O)C1c2ccccc2COc2c1cc(Br)cc2N(C)C.Cl (centres unmarked) , Inhibiting rate(%) of ACAT: 100

Recorded result, Cc1cc(Cl)c2c(c1C)C(C(=O)Nc1c(C(C)C)cccc1C(C)C)c1ccccc1CO2 (centres unmarked) , Inhibiting rate(%) of ACAT: 100

Recorded result, Cc1ccc(Cl)c2c1C(C(=O)Nc1c(C(C)C)cccc1C(C)C)c1ccccc1CO2 (centres unmarked) , Inhibiting rate(%) of ACAT: 100

Recorded result, O=C(Nc1c(Cl)cccc1Cl)C1c2ccccc2COc2ccc(Br)cc21 (centres unmarked) , Inhibiting rate(%) of ACAT: 91

Recorded result, Cc1ccc2c(c1)C(C(=O)Nc1ccccc1C(C)C)c1ccccc1CO2 (centres unmarked) , Inhibiting rate(%) of ACAT: 56

Recorded result, CC(C)c1cccc(C(C)C)c1NC(=O)C1c2ccccc2COc2ccc(Cl)cc21 (centres unmarked) , Inhibiting rate(%) of ACAT: 94

Recorded result, CC(C)c1cccc(C(C)C)c1NC(=O)C1c2ccccc2COc2c1cc(Br)cc2[N+](=O)[O-] (centres unmarked) , Inhibiting rate(%) of ACAT: 100

Recorded result, CCc1cccc(CC)c1NC(=O)C1c2ccccc2COc2ccc(Br)cc21 (centres unmarked) , Inhibiting rate(%) of ACAT: 80

Recorded result, CCc1cccc(CC)c1NC(=O)C1c2ccccc2COc2c(C)ccc(C)c21 (centres unmarked) , Inhibiting rate(%) of ACAT: 93

Recorded result, CSc1cc(C(C)C)c(NC(=O)C2c3ccccc3COc3ccc(Br)cc32)c(C(C)C)c1 (centres unmarked) , Inhibiting rate(%) of ACAT: 95

Recorded result, Cc1cc2c(cc1C)C(C(=O)Nc1c(C(C)C)cccc1C(C)C)c1ccccc1CO2 (centres unmarked) , Inhibiting rate(%) of ACAT: 96

Recorded result, Cc1ccc2c(c1)C(C(=O)Nc1c(C(C)C)cccc1C(C)C)c1ccccc1CC2 (centres unmarked) , Inhibiting rate(%) of ACAT: 99

* * *

Test system: acyl coenzyme A: cholesterol acyltransferase (ACAT)
test: Test for ACAT inhibitory activity (microsome fraction prepared from rabbit liver)
Format: biochemical
setup.conditions: 10^-6 M, 37° C., 10 minutes
parameter: Inhibiting rate(%) of ACAT
Answer format: numeric, % implied, no suffix.

// known answers, use as guide
Cc1ccc(C)c2c1OCc1ccccc1C2C(=O)Nc1c(C(C)C)cccc1C(C)C (stereo not drawn); 97
Cc1ccc2c(c1)C(C(=O)Nc1c(C)cccc1C)c1ccccc1CO2 (stereo not drawn); 66

Now for the compound whose Inhibiting rate(%) of ACAT we want.
Recorded result, COC(=O)c1ccc2c(c1)C(C(=O)Nc1c(C(C)C)cccc1C(C)C)c1ccccc1CO2 (stereo not drawn) , Inhibiting rate(%) of ACAT: 90

Where these numbers come from: patent US5340807A
